Tested on: NCI-H2126
Test: relative viability (nuclei count vs DMSO), 5 days (fraction); higher = more cells survive
Details: first compound 0.6325 µM
Measured quantity: relative viability
Could you respond with only the numeric value?

Could you share which relative viability value was measured for Cc1csc(=NC2CCCCC2)n1/N=C/c1ccc(O)c(O)c1O [MIM1] + COc1cccc2cc(-c3nc([C@H]4CC[C@H](C(=O)O)CC4)n4ncnc(N)c34)[nH]c12 [OSI-027] (partner 0.5 µM) ?
0.672

Could you share which relative viability value was measured for CN1CCN(CCOc2cc(OC3CCOCC3)c3c(Nc4c(Cl)ccc5c4OCO5)ncnc3c2)CC1 [Saracatinib] + N=C(N)NC(=N)NCCc1ccccc1 [Phenformin] (partner 250 µM) ?
0.524

Could you share which relative viability value was measured for CN1CCN(CCOc2cc(OC3CCOCC3)c3c(Nc4c(Cl)ccc5c4OCO5)ncnc3c2)CC1 [Saracatinib] + O=C(c1cc(Cc2n[nH]c(=O)c3ccccc23)ccc1F)N1CCN(C(=O)C2CC2)CC1 [Olaparib] (partner 8 µM) ?
0.923

Could you share which relative viability value was measured for CN1CCN(CCOc2cc(OC3CCOCC3)c3c(Nc4c(Cl)ccc5c4OCO5)ncnc3c2)CC1 [Saracatinib] + COc1cc2c(Oc3ccc(NC(=O)C4(C(=O)Nc5ccc(F)cc5)CC4)cc3F)ccnc2cc1OCCCN1CCOCC1 [Foretinib] (partner 0.25 µM) ?
1.17

Could you share which relative viability value was measured for Cc1csc(=NC2CCCCC2)n1/N=C/c1ccc(O)c(O)c1O [MIM1] + NC(=O)Nc1cc(-c2cccc(F)c2)sc1C(=O)N[C@H]1CCCNC1 [AZD7762] (partner 0.2 µM) ?
0.985
